Biological target: T1, DFNB31_3, Q9P202
T1 sequence (Q9P202 811-907, limits assumed, looked up): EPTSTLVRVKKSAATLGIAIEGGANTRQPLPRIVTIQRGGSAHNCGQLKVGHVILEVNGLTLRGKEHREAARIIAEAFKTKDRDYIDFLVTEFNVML
Assay: holdup assay
Design: key: below the threshold = too weak to quantify, mostly under pKd 3.1 to 4
Conditions: plain residues with an end cap or a label only (N-terminal biotin on a linker: ttds)

binder	pKd
GARVSKETPL [MAPK12, P53778]	below the threshold
SSIDLWETAL [SLC15A5, A6NIM6]	below the threshold
NPDALPETLV [ARHGAP6, O43182]	4.1

These measurements were taken from paper PMC9482650.
